Measured Post-emerge Herbicidal Activity, phytotoxicity rating DIGSA by item
# System: large crabgrass (Digitaria sanguinalis, DIGSA)
# method: Post-emerge test, greenhouse herbicide activity screening
# Format: in vivo
# assay conditions: Rate 63 g ai/ha; rating scale 0-100 (0 no damage, 100 complete death); 14 days after application
measured quantity: Post-emerge Herbicidal Activity, phytotoxicity rating DIGSA

# compound, numeric value
records = [
    ("CCCCOC(=O)C(C)(Cl)Cc1c(OC)c(Cl)cc(F)c1-n1c(=O)cc(C(F)(F)F)n(C)c1=O (stereo not shown)", 40),
    ("COc1c(Cl)cc(F)c(-n2c(=O)cc(C(F)(F)F)n(C)c2=O)c1CC(C)(Cl)C(=O)OCc1ccccc1 (stereo not shown)", 100),
    ("CCCOC(=O)C(Cl)Cc1c(OC)c(Cl)cc(F)c1-n1c(=O)cc(C(F)(F)F)n(C)c1=O (single isomer, unassigned) [14-6]", 50),
    ("CCCCCOC(=O)C(Cl)Cc1c(OC)c(Cl)cc(F)c1-n1c(=O)cc(C(F)(F)F)n(C)c1=O (single isomer, unassigned)", 99),
    ("C#CCOC(=O)C(Cl)Cc1c(OC)c(Cl)cc(F)c1-n1c(=O)cc(C(F)(F)F)n(C)c1=O (single isomer, unassigned)", 100),
    ("CCOC(=O)C(Br)Cc1c(OC)c(Cl)cc(F)c1-n1c(=O)cc(C(F)(F)F)n(C)c1=O (single isomer, unassigned)", 70),
    ("COc1c(Cl)cc(F)c(-n2c(=O)cc(C(F)(F)F)n(C)c2=O)c1CC(C)(Cl)C(=O)OCC(F)(F)C(F)F (stereo not shown)", 90),
]
